Tested on: HepG2
Test: cytotoxicity call (relative viability < 0.9)
Details: 10 µM
The campaign covered roughly 39,000 compounds. About 3,300 (8.5%) were called active. The entries come from a sample that favours actives as a whole.
Write down one outcome, taken from y = active, n = inactive

// outcome(item) with item = C[C@@H]1CCCCO[C@@H](CN(C)S(C)(=O)=O)[C@H](C)CN([C@@H](C)CO)C(=O)c2cc(N(C)C)ccc2O1
n

// outcome(item) with item = C[C@H]1CN([C@@H](C)CO)C(=O)c2cccc(NC(=O)NC3CCCCC3)c2O[C@H]1CN(C)C(=O)Nc1ccc(C(F)(F)F)cc1
y

// outcome(item) with item = C[C@@H]1CN([C@H](C)CO)S(=O)(=O)c2ccc(C3=CCCCC3)cc2O[C@H]1CN(C)Cc1cncnc1
n

// outcome(item) with item = CC(C)NC(=O)N(C)C[C@@H]1Oc2ccc(NC(=O)NC3CCCCC3)cc2CC(=O)N([C@H](C)CO)C[C@H]1C
n

// outcome(item) with item = C[C@@H]1CN([C@@H](C)CO)C(=O)c2cccc(NS(C)(=O)=O)c2O[C@H]1CN(C)Cc1ccc2c(c1)OCO2
n

// outcome(item) with item = C[C@H]1CN([C@@H](C)CO)C(=O)c2cccc(NC(=O)NC3CCCCC3)c2O[C@@H]1CN(C)C(=O)Nc1ccc(C(F)(F)F)cc1
n

// outcome(item) with item = CCCC#Cc1cnc2c(c1)C(=O)N([C@@H](C)CO)C[C@H](C)[C@H](CN(C)S(=O)(=O)c1cccc(OC)c1)O2
n

* * *

Tested on: HepG2
Assay: cytotoxicity call (relative viability < 0.9)
Settings: 10 µM
Hit rate of the full screen: of about 39,000 compounds, about 3,300 (8.5%) were called active. The full list was thinned out, with actives kept by preference.
Write down one outcome, taken from 1 for active, 0 for inactive

// outcome(item) with item = Cc1noc(C)c1S(=O)(=O)Nc1ccc2c(c1)CC(=O)N([C@H](C)CO)C[C@H](C)[C@H](CN(C)S(=O)(=O)c1ccccc1)O2
0

// outcome(item) with item = COc1ccc(NC(=O)N(C)C[C@H]2OCCCC[C@H](C)Oc3ccc(NS(=O)(=O)c4cccs4)cc3C(=O)N([C@@H](C)CO)C[C@@H]2C)cc1
0

// outcome(item) with item = C[C@@H]1CCCCO[C@H](CN(C)Cc2ccc(C(=O)O)cc2)[C@H](C)CN([C@H](C)CO)C(=O)c2cc(NS(=O)(=O)c3cccs3)ccc2O1
0

// outcome(item) with item = CC(/C=C/C(=O)NO)=C\c1ccccc1OCc1cn(C[C@@H]2CCCN2S(=O)(=O)c2ccc(C)cc2)nn1
1

// outcome(item) with item = Cc1ccc(S(=O)(=O)N[C@H](C(=O)NCCn2cc(CCC(=O)NO)nn2)C(C)C)cc1
0

// outcome(item) with item = CC(/C=C/C(=O)NO)=C\c1ccccc1OCc1cn(-c2cccc(N(S(=O)(=O)c3ccc(C)cc3)S(=O)(=O)c3ccc(C)cc3)c2)nn1
1

// outcome(item) with item = Nc1cccc(-n2cc(CCC(=O)NO)nn2)c1
0

// outcome(item) with item = COC(=O)[C@@H](Cc1ccc(-n2cc(COc3ccccc3/C=C(C)/C=C/C(=O)NO)nn2)cc1)N1CC(/C=C/C2CC2)=C[C@H]1[C@H](O)Cc1ccccc1
0

// outcome(item) with item = CC(/C=C/C(=O)NO)=C\c1ccccc1OCc1cn(CCNC(=O)[C@@H](NS(=O)(=O)c2ccc(C)cc2)C(C)C)nn1
0

// outcome(item) with item = C[C@H](CO)N1C[C@H](C)[C@@H](CN(C)S(=O)(=O)c2ccccc2F)Oc2cc(C#Cc3cccc(F)c3)ccc2S1(=O)=O
0

// outcome(item) with item = COc1ccc(S(=O)(=O)N(C)C[C@@H]2Oc3ncc(C#CCN(C)C)cc3C(=O)N([C@H](C)CO)C[C@@H]2C)cc1
0

// outcome(item) with item = COC(=O)[C@H](Cc1ccccc1)N1C[C@](C)(OC(C)C)O[C@@H](CCn2cc(COc3ccccc3/C=C(C)/C=C/C(=O)NO)nn2)[C@@H]1/C=C/C1CC1
0

// outcome(item) with item = C[C@@H]1CN([C@H](C)CO)C(=O)c2cccc(NS(=O)(=O)c3cccs3)c2O[C@@H]1CN(C)S(=O)(=O)c1cccs1
0

// outcome(item) with item = Cc1noc(C)c1NC(=O)Nc1ccc2c(c1)C(=O)N([C@@H](C)CO)C[C@@H](C)[C@@H](CN(C)S(C)(=O)=O)O2
0

// outcome(item) with item = Cc1ccc(S(=O)(=O)N(c2cccc(-n3cc(CCC(=O)NO)nn3)c2)S(=O)(=O)c2ccc(C)cc2)cc1
1

* * *

Test system: HepG2
Test: cytotoxicity call (relative viability < 0.9)
Conditions: 10 µM
The campaign covered roughly 39,000 compounds. About 3,300 (8.5%) were called active. The sample holds actives, similar compounds and a random draw of the others, so the mix is not that of the screen.
Write down one outcome, taken from class 1 (active), class 0 (inactive)

// outcome(item) with item = O=C(C[C@@H]1C[C@H]2c3cc(NC(=O)NC4CCCC4)ccc3O[C@H]2[C@@H](CO)O1)NCc1ccc2c(c1)OCO2
class 0

// outcome(item) with item = CC(C)C[C@H](NC(=O)[C@H](CCc1ccccc1)NC(=O)CN1CCOCC1)C(=O)N[C@@H](Cc1ccccc1)C(=O)N[C@@H](CC(C)C)C(=O)[C@@]1(C)CO1
class 1

// outcome(item) with item = CC(=O)N[C@@H](Cc1ccccc1)C(=O)O
class 0

// outcome(item) with item = COC[C@H](NC(=O)c1cnc(C)s1)C(=O)N[C@@H](COC)C(=O)N[C@@H](Cc1ccccc1)C(=O)[C@@]1(C)CO1
class 1

// outcome(item) with item = CC(C)NC(=O)Nc1ccc2c(c1)C(=O)N([C@H](C)CO)C[C@H](C)[C@@H](CN(C)C(=O)Nc1cccc3ccccc13)OCCCC[C@H](C)O2
class 0

// outcome(item) with item = C[C@@H]1CN([C@@H](C)CO)C(=O)c2cc(C#CC3(O)CCCC3)cnc2O[C@H]1CN(C)C(=O)Cc1ccncc1
class 0

// outcome(item) with item = COc1ccc(C[C@H](NC(=O)[C@H](C)NC(=O)CN2CCOCC2)C(=O)N[C@@H](Cc2ccccc2)C(=O)[C@@]2(C)CO2)cc1
class 1

// outcome(item) with item = CC(=O)N[C@@H](Cc1ccccc1)C(=O)NN
class 0

* * *

Tested on: HepG2
Experiment: cytotoxicity call (relative viability < 0.9)
Conditions: 10 µM
About 3,300 (8.5%) of roughly 39,000 compounds were called active. The sample holds actives, similar compounds and a random draw of the others, so the mix is not that of the screen.
Write down one outcome, taken from y (active), n (inactive)

// outcome(item) with item = CC1(N)CCN(c2cccnc2NC(=O)c2nc(-c3ncccc3C(F)(F)F)cnc2N)CC1
n

// outcome(item) with item = O=C(C[C@H]1C[C@H]2c3cc(NC(=O)c4ccc5c(c4)OCO5)ccc3O[C@H]2[C@@H](CO)O1)NCCc1ccccc1
n

// outcome(item) with item = Cc1noc(C)c1NC(=O)Nc1ccc2c(c1)C(=O)N([C@H](C)CO)C[C@H](C)[C@H](CN(C)Cc1ccc(-c3ccccc3)cc1)O2
n

// outcome(item) with item = COC(=O)C=CC(=O)OC
y

// outcome(item) with item = O=C(C[C@H]1C[C@@H]2c3cc(NC(=O)c4ccc5c(c4)OCO5)ccc3O[C@@H]2[C@H](CO)O1)NCc1cccnc1
n

// outcome(item) with item = Cn1c(=O)c(F)c(Nc2ccc(I)cc2F)c2c(=O)n(C[C@@H](O)CO)cnc21
y

// outcome(item) with item = C[C@@H]1CCCCO[C@@H](CN(C)S(C)(=O)=O)[C@H](C)CN([C@@H](C)CO)C(=O)c2cc(NC(=O)Nc3ccc(C(F)(F)F)cc3)ccc2O1
n

// outcome(item) with item = O=C(C[C@@H]1C[C@@H]2c3cc(NC(=O)c4ccc5c(c4)OCO5)ccc3O[C@@H]2[C@@H](CO)O1)NCCc1ccccc1
n

// outcome(item) with item = C[C@@H]1CCCCO[C@H](CN(C)C(=O)c2ccccc2)[C@@H](C)CN([C@@H](C)CO)C(=O)c2cc(NC(=O)CCC(F)(F)F)ccc2O1
n

// outcome(item) with item = COc1cccc(NC(=O)N[C@H]2C=C[C@H](CC(=O)N3CCN(C)CC3)O[C@@H]2CO)c1
n

// outcome(item) with item = COC(=O)/C=C/C(=O)OC
n

// outcome(item) with item = COc1ccc(NC(=O)Nc2ccc3c(c2)C(=O)N([C@H](C)CO)C[C@@H](C)[C@H](CN(C)C(=O)NC2CCCCC2)OCCCC[C@@H](C)O3)cc1
n

// outcome(item) with item = COC(=O)/C=C/C(=O)O
n

// outcome(item) with item = C[C@@H]1CN([C@H](C)CO)C(=O)c2cccc(NC(=O)c3cnccn3)c2O[C@@H]1CN(C)Cc1ccc2c(c1)OCO2
n

// outcome(item) with item = C[C@H](CO)N1C[C@H](C)[C@H](CN(C)Cc2ccc(C(F)(F)F)cc2)OCc2ccccc2-c2ccccc2C1=O
n

// outcome(item) with item = C[C@H](CO)N1C[C@H](C)[C@H](CN(C)Cc2ccncc2)Oc2c(NS(=O)(=O)c3ccc(F)cc3)cccc2C1=O
n

// outcome(item) with item = O=C(C[C@H]1C[C@@H]2c3cc(NC(=O)c4ccc5c(c4)OCO5)ccc3O[C@@H]2[C@@H](CO)O1)NCc1ccc(Oc2ccccc2)cc1
y
